Reference source for all entries: PubChem BioAssay (NCI)

# Tested on: SK-OV-3 ovarian
# assay-info: NCI-60 one-dose screen, 48 h
# details: 10 µM unless noted
# Protocol: Growth inhibition of the SK-OV-3 human tumor cell line is measured as a screen for anti-cancer activity. Cells are grown in 96 well plates and exposed to the test compound for 48 hours. Compounds are tested at a single concentration, which is 10^-5 M for most compounds. The reported endpoint is percent growth (GI% or GIPRCNT), where numbers from 0 - 100% represent growth inhibition, and numbers from -100% - 0 represent cell death. For example, a value of 40 represents 60% growth inhibition. […]
This is part of a sample that, as a whole, favours compounds with a hit. Of some 83,000 tested, about 20% had one in any assay. Calls of active or inactive are those of the source. Rule for the calls: active = growth percent below 10; inactive = the rest.
Outcome codes: true (1) for active, false (0) for inactive

>  <compound>
Nc1cc(-c2c[nH]c3ccccc23)nc2cc(-c3c[nH]c4ccccc34)nn12

>  <discrete-label>
false (0)

$$$$
>  <compound>
N#Cc1nc(-c2ccccc2)oc1N1CCC(CO)C1 (centres undefined)

>  <discrete-label>
false (0)

$$$$
>  <compound>
Nc1c(C(=O)Nc2ccc(C(F)(F)F)cc2)sc2nc(-c3cnccn3)cc(-c3cccs3)c12

>  <discrete-label>
false (0)

$$$$
>  <compound>
COc1cc(OC)c(C2SCC(=O)N2Nc2ncnc3ccccc23)cc1OC (centres undefined)

>  <discrete-label>
false (0)

$$$$
>  <compound>
O=C1c2c(c3c4cccnc4[nH]c3c3ccc4ccccc4c23)C(=O)N1CCO

>  <discrete-label>
false (0)

$$$$
>  <compound>
C#Cc1nc(C2=C(C)/C(=N/OCc3ccccc3)CC2)cs1

>  <discrete-label>
true (1)

$$$$
>  <compound>
O=C(N/N=C/c1ccc(Cl)s1)c1[nH]c2ccc(Br)cc2c1-c1ccccc1

>  <discrete-label>
false (0)

$$$$
>  <compound>
CN(C)CCCNc1c2ccccc2nc2c1oc1ccc(Cl)cc12

>  <discrete-label>
false (0)

$$$$
>  <compound>
C=CCn1c(SCC(=O)c2ccc(Br)cc2)nnc1-c1c[nH]c2ccccc12

>  <discrete-label>
false (0)

$$$$
>  <compound>
COc1cc(N=Cc2sc(Nc3nccs3)nc2O)cc(OC)c1OC

>  <discrete-label>
false (0)

$$$$
>  <compound>
CCN1C(=S)N(CC)C2C1NN=C1SC(c3ccccc3)=CC(=O)N12 (centres undefined)

>  <discrete-label>
false (0)

$$$$
>  <compound>
O=C(c1ccc(Cl)cc1)C1[C@H](c2ccc(Cl)cc2)[C@@H](c2ccccc2)NC12C(=O)Nc1ccc(Br)cc12 (some centres undefined)

>  <discrete-label>
false (0)

$$$$
>  <compound>
N#Cc1c(-c2ccc(Cl)cc2)nc(SCc2ccccc2)nc1N1CCNCC1

>  <discrete-label>
false (0)

$$$$
>  <compound>
Cc1nc(-c2cc3ccccc3oc2=O)ccc1C(=O)/C=C/c1ccccn1

>  <discrete-label>
false (0)

$$$$
>  <compound>
CN1CCN(Cc2ccc(NC(=O)c3cncc(C#Cc4cnc5ccc(N6CCSCC6)nn45)c3)cc2C(F)(F)F)CC1

>  <discrete-label>
true (1)

$$$$
>  <compound>
CCOC(=O)c1csc(NC(=O)CSc2nc3sc4c(c3c(=O)n2-c2ccc(Cl)cc2)CCCC4)n1

>  <discrete-label>
false (0)

$$$$
>  <compound>
NS(=O)(=O)c1cccc(Nc2nc(SCC(=O)c3ccc(Cl)cc3)nc3ccccc23)c1

>  <discrete-label>
false (0)

$$$$
>  <compound>
CS(=O)(=O)Nc1ccc(-c2nn(-c3ccc(S(C)(=O)=O)cc3)cc2/C=C/C(=O)c2ccc(NC(=O)CO[N+](=O)[O-])cc2)cc1

>  <discrete-label>
false (0)

$$$$
>  <compound>
N#Cc1c(-c2ccc(Cl)cc2)nc(SCc2ccc(F)cc2)nc1N1CCNCC1

>  <discrete-label>
false (0)

$$$$
>  <compound>
NS(=O)(=O)c1ccc(Nc2nc(SCC(=O)c3ccc(Cl)cc3)nc3ccccc23)cc1

>  <discrete-label>
false (0)

$$$$
>  <compound>
N/C(=N\c1nc2c(Cl)cc(Cl)cc2s1)C(Cl)(Cl)Cl

>  <discrete-label>
false (0)

$$$$
>  <compound>
COC(=O)c1ccc(NC(=S)N2CCc3ccc([N+](=O)[O-])cc3C2)cc1O

>  <discrete-label>
false (0)

$$$$
>  <compound>
Cc1cccc(/C=C/c2nn3c(-c4ccco4)nnc3s2)c1

>  <discrete-label>
false (0)

$$$$
>  <compound>
COc1cc2nc(-c3ccc(C(F)(F)F)cc3)cc(OCCCNCC3CCCO3)c2cc1OC (centres undefined)

>  <discrete-label>
false (0)

$$$$
>  <compound>
CN(C)CCCOc1c2ccccc2nc2c1oc1ccc(Cl)cc12

>  <discrete-label>
false (0)

$$$$
>  <compound>
O=C(N/N=C/c1ccco1)c1[nH]c2ccc(Br)cc2c1-c1ccccc1

>  <discrete-label>
false (0)

$$$$
>  <compound>
CN1CCc2c(sc3ncnc(N/N=C/c4ccc(Cl)c(Cl)c4)c23)C1

>  <discrete-label>
false (0)

$$$$
>  <compound>
COC(=O)C(C)NS(=O)(=O)/N=C1\NC(=O)NC1=C(Cl)Cl (centres undefined)

>  <discrete-label>
false (0)

$$$$
>  <compound>
CCCC(=O)NC(c1ccc(N(CC)CC)cc1)c1cc(C)c2cccnc2c1O (centres undefined)

>  <discrete-label>
false (0)

$$$$
>  <compound>
O=C1Nc2cc(Cl)ccc2/C1=C\c1ccc(OCc2ccc(Br)cc2F)cc1

>  <discrete-label>
true (1)

$$$$
>  <compound>
COc1ccc(-c2nc3ccc(-c4nnc(SCC(=O)Nc5ccc(C(=O)/C=C/c6ccccc6)cc5)o4)cc3[nH]2)cc1OC

>  <discrete-label>
false (0)

$$$$
>  <compound>
O=c1[nH]c2ccc(Cl)cc2cc1CSc1ccccc1Nc1nccc(-c2ccc(Cl)cc2)n1

>  <discrete-label>
false (0)

$$$$
>  <compound>
C#C[C@]1(O)CC[C@H]2[C@@H]3CC=C4c5sc(Nc6ccc(Cl)cn6)nc5CC[C@]4(C)[C@H]3CC[C@@]21C

>  <discrete-label>
false (0)

$$$$
>  <compound>
Cc1cc(=O)oc2cc(OCCCOc3ccc(/C=C/C(=O)Nc4ccc(Cl)cc4)cc3)ccc12

>  <discrete-label>
false (0)

$$$$
>  <compound>
CC(=O)Oc1ccccc1C(=O)Nc1cc(C(C)C)ccc1C

>  <discrete-label>
true (1)

$$$$
>  <compound>
CC(=NNc1ncnc2ccccc12)c1ccc(S(C)(=O)=O)cc1

>  <discrete-label>
false (0)

$$$$
>  <compound>
COc1cccc(N2CCN(c3ncnc4c3[nH]c3ccc(F)cc34)C[C@@H]2C)c1

>  <discrete-label>
true (1)

$$$$
>  <compound>
COc1ccc(-c2csc(N/N=C/c3c(-c4ccc(S(C)(=O)=O)cc4)nc4ccccn34)n2)cc1

>  <discrete-label>
false (0)

$$$$
>  <compound>
O=C(N/N=C/c1cccs1)c1[nH]c2ccc(Br)cc2c1-c1ccccc1

>  <discrete-label>
false (0)

$$$$
